Sourced from patent US20240148821A1

TGT: protein-protein interaction between Kras and SOS1 (biotin-tagged human Kras loaded with GDP, His-tagged human SOS1) (Homo sapiens (Human), UniProt P01116, G12D)
ASSAY REMARKS: Protein-protein interaction inhibition between Kras and SOS1 (KrasG12D-SOS PPI) using AlphaScreen;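 further: kras produced in E. coli, Ni-coupled donor beads and streptavidin acceptor beads, excitation 680 nm with emission detected at 520–620 nm via singlet oxygen transfer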
Assay type: biochemical
CONDITION INFO: AlphaScreen; biotin-tagged human Kras loaded with GDP, His-tagged human SOS1; read-out: KRAS G12D-SOS PPI IC50
Numbered stars: 1 amine (or outer) side, 2 acyl side, 3 side chain; on linkers, the order of the positions; unused ones are H or OH. Bridge positions count the residues as written; N and C are the ends. Square brackets hold non-standard residues; d marks the D form. Peptide text beside a SMILES is read from it. * marks the point of attachment. hPhe(3-Cl-4-CF3) = N[C@@H](CCc1ccc(C(F)(F)F)c(Cl)c1)C(=O)O; NMePhe(4-CF3) = CN[C@@H](Cc1ccc(C(F)(F)F)cc1)C(=O)O; NEtPhe(4-Me) = CCN[C@@H](Cc1ccc(C)cc1)C(=O)O; NMePhe(4-Cl) = CN[C@@H](Cc1ccc(Cl)cc1)C(=O)O; hPhe(3-Cl) = N[C@@H](CCc1cccc(Cl)c1)C(=O)O; NMedβ3hAla = C[C@H](CC(=O)[*:2])N(C)[*:1]; NMeGly(cPent) = CN[C@H](C(=O)O)C1CCCC1; NMeCha = CN[C@@H](CC1CCCCC1)C(=O)O; Hyp = O=C(O)[C@@H]1C[C@@H](O)CN1; NMeI = CC[C@H](C)[C@H](NC)C(=O)O; NMeD = CN[C@@H](CC(=O)O)C(=O)O; NMeL = CN[C@@H](CC(C)C)C(=O)O; NMeV = CN[C@H](C(=O)O)C(C)C; d(β3hA) = C[C@@H](N)CC(=O)O; Azetidin(1-yl) = C1CN(*)C1; NMeA = CN[C@@H](C)C(=O)O; Piperidide = C1CCN(*)CC1; dNMeA = CN[C@H](C)C(=O)O; Ac5c = NC1(C(=O)O)CCCC1; Aze = O=C(O)[C@@H]1CCN1; Ac4c = NC1(C(=O)O)CCC1; Aib = CC(C)(N)C(=O)O; NEtG = CCNCC(=O)O; Sar = CNCC(=O)O
QUANTITY NAME: IC50 (nM)
Give a bare numeral; the unit nM is implied.

# COMPOUND, ASSAY RESULT
records = [
    ("CC[C@H](C)[C@@H]1NC(=O)[C@H](C)N(C)C(=O)C[C@@H](C(=O)N2CCCCC2)N(C)C(=O)[C@H](C(C)C)N(C)C(=O)C2(CCCC2)NC(=O)[C@@H]2CCCN2C(=O)[C@H](CCc2ccc(C(F)(F)F)c(Cl)c2)NC(=O)[C@@H](C)N(C)C(=O)[C@H](CC2CCCCC2)N(C)C(=O)[C@@H]2CCCN2C(=O)CN(C)C1=O [Compound 307] ([NMeA]I[Sar]P[NMeCha][dNMeA][hPhe(3-Cl-4-CF3)]P[Ac5c][NMeV][NMeD]-Piperidide; lactam N-11)", 4.4),
    ("CC[C@H](C)[C@@H]1NC(=O)[C@H](CC(C)C)N(C)C(=O)C[C@@H](C(=O)N2CCC2)N(C)C(=O)[C@H](C2CCCC2)N(C)C(=O)C2(CCCC2)NC(=O)[C@@H]2CCCN2C(=O)[C@H](CCc2ccc(C(F)(F)F)c(Cl)c2)NC(=O)CN(C)C(=O)[C@H](Cc2ccc(C)cc2)N(CC)C(=O)[C@@H]2CCN2C(=O)[C@H](C)N(C)C1=O [Compound 506] ([NMeL]I[NMeA][Aze][NEtPhe(4-Me)][Sar][hPhe(3-Cl-4-CF3)]P[Ac5c][NMeGly(cPent)][NMeD]-{Azetidin(1-yl)}; lactam N-11)", 0.68),
    ("CC[C@H](C)[C@@H]1NC(=O)[C@H](C)N(C)C(=O)C[C@@H](C)NC(=O)[C@H](CC(C)C)N(C)C(=O)C(C)(C)NC(=O)[C@H](CC(C)C)N(C)C(=O)[C@H](CCc2cccc(Cl)c2)NC(=O)CN(C)C(=O)[C@H](Cc2ccc(Cl)cc2)N(C)C(=O)CN(C)C(=O)CN(C)C1=O [Compound 153] (cyclo([Aib][NMeL][d(β3hA)][NMeA]I[Sar][Sar][NMePhe(4-Cl)][Sar][hPhe(3-Cl)][NMeL]))", 60),
    ("CC[C@H](C)[C@@H]1NC(=O)[C@H](CC(C)C)N(C)C(=O)C[C@@H](C(=O)N2CCCCC2)N(C)C(=O)[C@H](C(C)C)N(C)C(=O)C2(CCCC2)NC(=O)[C@@H]2CCCN2C(=O)[C@H](CCc2ccc(C(F)(F)F)c(Cl)c2)NC(=O)CN(CC)C(=O)[C@H](CC2CCCCC2)N(C)C(=O)[C@@H]2CCN2C(=O)[C@H](C)N(C)C1=O [Compound 1276] ([NMeL]I[NMeA][Aze][NMeCha][NEtG][hPhe(3-Cl-4-CF3)]P[Ac5c][NMeV][NMeD]-Piperidide; lactam N-11)", 17),
]

The record that follows has no IC50 shown yet.
[Q] # IC50 lookup, item CCO[C@@H]1C[C@H]2C(=O)NC3(CCC3)C(=O)N(C)[C@@H]([C@@H](C)CC)C(=O)N(C)[C@H](C)CC(=O)N(C)[C@@H](CC(C)C)C(=O)N[C@@H]([C@@H](C)CC)C(=O)N(C)[C@@H](C)C(=O)N3CC[C@H]3C(=O)N(C)[C@@H](Cc3ccc(C(F)(F)F)cc3)C(=O)N(C)CC(=O)N[C@@H](CCc3ccc(C(F)(F)F)c(Cl)c3)C(=O)N2C1 [Compound 99] (cyclo([Ac4c][NMeI][NMedβ3hAla][NMeL]I[NMeA][Aze][NMePhe(4-CF3)][Sar][hPhe(3-Cl-4-CF3)][Hyp](Et)))
[A] 2.9
